Reference source for all entries: patent US8318716B2

System: methicillin-resistant Staphylococcus aureus (MRSA)
Assay: In vitro antibacterial activity, agar dilution method, MRSA
Format: cell-based
Settings: clinically isolated strains
Reported MIC90 values follow for various compounds
// return numeric value only (unit: µg/mL, not printed)

Use these answered entries as a reference point.
# Compound, Experimental system, Attribute measured, Numeric readout
measured = [
    ("C[C@@H](O)[C@H]1C(=O)N2C(C(=O)O)=C(S[C@@H]3CN[C@H](C(=O)N(C)C)C3)[C@H](C)[C@H]12 [Meropenem, reference compound]", "methicillin-resistant Staphylococcus aureus (MRSA)", "MIC90", 64),
    ("C[C@@H](O)[C@H]1C(=O)N2C(C(=O)O)=C(S[C@@H]3CN[C@H](C(=O)NCc4ccc(OC(F)(F)F)cc4)C3)[C@H](C)[C@H]12 [Compound 4]", "methicillin-resistant Staphylococcus aureus (MRSA)", "MIC90", 16),
    ("C[C@@H](O)[C@H]1C(=O)N2C(C(=O)O)=C(SCCN=CN)C[C@H]12 [Imipenem, reference compound]", "methicillin-resistant Staphylococcus aureus (MRSA)", "MIC90", 32),
    ("C[C@@H](O)[C@H]1C(=O)N2C(C(=O)O)=C(S[C@@H]3CN[C@H](C(=O)NCc4cccc(CCC(=O)O)c4)C3)[C@H](C)[C@H]12 [Compound 3]", "methicillin-resistant Staphylococcus aureus (MRSA)", "MIC90", 32),
    ("C[C@@H](O)[C@H]1C(=O)N2C(C(=O)O)=C(S[C@@H]3CN[C@H](C(=O)NCc4ccc(S(N)(=O)=O)cc4)C3)[C@H](C)[C@H]12 [Compound 2]", "methicillin-resistant Staphylococcus aureus (MRSA)", "MIC90", 16),
    ("COc1ccc(CNC(=O)[C@@H]2C[C@H](SC3=C(C(=O)O)N4C(=O)[C@H]([C@@H](C)O)[C@H]4[C@H]3C)CN2)cc1 [Compound 1]", "methicillin-resistant Staphylococcus aureus (MRSA)", "MIC90", 16),
]

*Q* Give the reported value of MIC90 for this record: C[C@@H](O)[C@H]1C(=O)N2C(C(=O)O)=C(S[C@@H]3CN[C@H](C(=O)NCc4ccc(OC(F)F)cc4)C3)[C@H](C)[C@H]12 [Compound 5]
*A* 16

---

Test system: proteus mirabilis
Experiment: In vitro antibacterial activity, agar dilution method, proteus mirabilis
Format: cell-based
Conditions: clinically isolated strains
Attribute measured: MIC90 (µg/mL)
// return numeric value only (unit: µg/mL, not printed)

# Compound, Reading unit, Numeric readout
records = [
    ("C[C@@H](O)[C@H]1C(=O)N2C(C(=O)O)=C(SCCN=CN)C[C@H]12 [Imipenem, reference compound]", "µg/mL", 8),
    ("C[C@@H](O)[C@H]1C(=O)N2C(C(=O)O)=C(S[C@@H]3CN[C@H](C(=O)NCc4ccc(OC(F)(F)F)cc4)C3)[C@H](C)[C@H]12 [Compound 4]", "µg/mL", 0.125),
    ("C[C@@H](O)[C@H]1C(=O)N2C(C(=O)O)=C(S[C@@H]3CN[C@H](C(=O)N(C)C)C3)[C@H](C)[C@H]12 [Meropenem, reference compound]", "µg/mL", 0.25),
    ("C[C@@H](O)[C@H]1C(=O)N2C(C(=O)O)=C(S[C@@H]3CN[C@H](C(=O)NCc4cccc(CCC(=O)O)c4)C3)[C@H](C)[C@H]12 [Compound 3]", "µg/mL", 0.25),
    ("C[C@@H](O)[C@H]1C(=O)N2C(C(=O)O)=C(S[C@@H]3CN[C@H](C(=O)NCc4ccc(OC(F)F)cc4)C3)[C@H](C)[C@H]12 [Compound 5]", "µg/mL", 0.125),
]

*Q* Give the reported value of MIC90 for this record: COc1ccc(CNC(=O)[C@@H]2C[C@H](SC3=C(C(=O)O)N4C(=O)[C@H]([C@@H](C)O)[C@H]4[C@H]3C)CN2)cc1 [Compound 1]
*A* 0.125

*Q* Give the reported value of MIC90 for this record: C[C@@H](O)[C@H]1C(=O)N2C(C(=O)O)=C(S[C@@H]3CN[C@H](C(=O)NCc4ccc(S(N)(=O)=O)cc4)C3)[C@H](C)[C@H]12 [Compound 2]
*A* 0.125
